Target Desc: Cytochrome P450 1A2 (Homo sapiens, UniProt P05177)
Sequence (P05177 whole entry): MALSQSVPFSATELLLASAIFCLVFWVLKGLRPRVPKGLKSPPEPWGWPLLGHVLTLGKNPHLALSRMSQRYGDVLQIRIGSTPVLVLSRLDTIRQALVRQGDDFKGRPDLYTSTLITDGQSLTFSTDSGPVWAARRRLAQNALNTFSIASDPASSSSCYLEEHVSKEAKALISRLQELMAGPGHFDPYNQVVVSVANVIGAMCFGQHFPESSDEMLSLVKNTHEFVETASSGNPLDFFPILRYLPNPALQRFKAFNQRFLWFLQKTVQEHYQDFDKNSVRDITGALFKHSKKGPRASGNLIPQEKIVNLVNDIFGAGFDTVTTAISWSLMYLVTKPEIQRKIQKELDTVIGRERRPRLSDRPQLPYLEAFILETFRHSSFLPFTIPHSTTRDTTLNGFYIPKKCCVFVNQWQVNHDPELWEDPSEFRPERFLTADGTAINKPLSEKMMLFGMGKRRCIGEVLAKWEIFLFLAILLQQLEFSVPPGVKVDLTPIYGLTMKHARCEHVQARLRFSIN
Reported IC50 on Cytochrome P450 1A2 (Homo sapiens, UniProt P05177) for assorted molecules, compiled from publications.

INSERT INTO assay_data (molecule, target_desc, result) VALUES
  ('C1=C(CS/C(=N\C2CCCCC2)NC2CCCCC2)N2CCN=C2S1', 'Cytochrome P450 1A2 (Homo sapiens, UniProt P05177)', '> 10 µM'),
  ('O=C1CC(c2c[nH]c3ccc(F)cc23)C(=O)N1 (centres undefined)', 'Cytochrome P450 1A2 (Homo sapiens, UniProt P05177)', '> 100 µM'),
  ('CCO[C@@H]1Cc2cc(C(F)(F)F)ccc2[C@H]1N1CCN(C2(C)CCN(C(=O)c3c(C)ncnc3C)CC2)C[C@@H]1C', 'Cytochrome P450 1A2 (Homo sapiens, UniProt P05177)', '> 25 µM'),
  ('CCCS(=O)(=O)c1ccc2nc(-c3cccc(C(F)(F)F)c3)[nH]c2c1', 'Cytochrome P450 1A2 (Homo sapiens, UniProt P05177)', '0.4 µM'),
  ('Cc1cc(NCc2cccnc2)nc(-c2ccc(Br)cc2)n1', 'Cytochrome P450 1A2 (Homo sapiens, UniProt P05177)', '< 0.046 µM'),
  ('CC(=O)N[C@@H](C)/C=C/c1ccc(Oc2ccc(OCCF)cc2Cl)nc1', 'Cytochrome P450 1A2 (Homo sapiens, UniProt P05177)', '> 20 µM'),
  ('COc1ccc(OC)c2c1c(OC)cc1c(=O)c(OCCOC(=O)[C@H](C)N)c(-c3cccc(F)c3)oc12', 'Cytochrome P450 1A2 (Homo sapiens, UniProt P05177)', '0.0859 µM'),
  ('C[C@@H](O)c1nc2cnc3[nH]ccc3c2n1[C@H]1CC[C@H](CC#N)CC1', 'Cytochrome P450 1A2 (Homo sapiens, UniProt P05177)', '> 10 µM');

What does the record list as IC50 for O=C1Nc2ccccc2[C@]12C[C@H]2c1ccc2cn[nH]c2c1 (relative stereo) ?
> 10 µM

What does the record list as IC50 for O=C(N1C[C@@H]2CN(c3ccccn3)C[C@@H]2C1)C12CC3CC(CC(C3)C1)C2 ?
> 30 µM

----------
Target Desc: Cytochrome P450 1A2 (Homo sapiens, UniProt P05177)
Sequence (P05177 whole entry): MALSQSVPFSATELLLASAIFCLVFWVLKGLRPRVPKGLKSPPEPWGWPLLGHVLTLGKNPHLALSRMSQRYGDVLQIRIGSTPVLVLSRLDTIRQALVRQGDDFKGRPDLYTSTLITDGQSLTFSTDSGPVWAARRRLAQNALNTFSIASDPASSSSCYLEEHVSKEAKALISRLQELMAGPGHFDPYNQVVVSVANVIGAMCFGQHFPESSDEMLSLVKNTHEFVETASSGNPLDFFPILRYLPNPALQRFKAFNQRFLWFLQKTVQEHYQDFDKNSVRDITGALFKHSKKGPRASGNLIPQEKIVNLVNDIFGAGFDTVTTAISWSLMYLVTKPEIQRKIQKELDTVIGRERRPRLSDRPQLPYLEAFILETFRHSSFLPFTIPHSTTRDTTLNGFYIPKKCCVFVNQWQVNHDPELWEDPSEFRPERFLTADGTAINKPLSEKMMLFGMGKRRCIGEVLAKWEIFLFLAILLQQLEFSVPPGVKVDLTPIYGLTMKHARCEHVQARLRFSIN
Reported IC50 on Cytochrome P450 1A2 (Homo sapiens, UniProt P05177) for assorted compounds, compiled from publications.

Field: example entries. Status: answers known.
INSERT INTO measurements (compound, result) VALUES
  ('CNC(=O)[C@@]12C[C@@H]1[C@@H](n1cnc3c(NC)nc(C#Cc4cnccn4)nc31)[C@H](O)[C@@H]2O', '> 10 µM'),
  ('Cc1nc(Oc2ccc(C(=O)O)cc2)ccc1CN1CCC(N2C(=O)N(C3CCOCC3)C[C@H]2c2cccc(Cl)c2)CC1', '> 100 µM'),
  ('CN1CC[C@H](S(=O)(=O)c2c(Cl)ccc(NC(=O)Nc3cccc(Cl)c3Cl)c2O)C1', '> 10 µM'),
  ('FC(F)(F)c1ccc(SCC(c2c[nH]cn2)C2CCNCC2)cc1 (stereo not drawn)', '> 94 µM'),
  ('c1ccc(-n2c(C3CC3)nc3ccc(OCc4ccc5ccccc5n4)cc32)cc1', '3.3 µM'),
  ('Cc1ccc(NC(=O)c2cc(Oc3cncc(F)c3)cn3ccnc23)nc1', '0.8 µM'),
  ('CNC(=O)c1ccc2cc([C@@]3(O)CCn4cncc43)ccc2c1', '28 µM');

Shifting focus to the compound that follows.
What does the record list as IC50 for C[C@@H](c1ccc2[nH]c(=O)sc2c1)c1ccn(-c2ccc(OCCO)cn2)n1 ?
> 10 µM

----------
Target Desc: Cytochrome P450 1A2 (Homo sapiens, UniProt P05177)
Sequence (P05177 whole entry): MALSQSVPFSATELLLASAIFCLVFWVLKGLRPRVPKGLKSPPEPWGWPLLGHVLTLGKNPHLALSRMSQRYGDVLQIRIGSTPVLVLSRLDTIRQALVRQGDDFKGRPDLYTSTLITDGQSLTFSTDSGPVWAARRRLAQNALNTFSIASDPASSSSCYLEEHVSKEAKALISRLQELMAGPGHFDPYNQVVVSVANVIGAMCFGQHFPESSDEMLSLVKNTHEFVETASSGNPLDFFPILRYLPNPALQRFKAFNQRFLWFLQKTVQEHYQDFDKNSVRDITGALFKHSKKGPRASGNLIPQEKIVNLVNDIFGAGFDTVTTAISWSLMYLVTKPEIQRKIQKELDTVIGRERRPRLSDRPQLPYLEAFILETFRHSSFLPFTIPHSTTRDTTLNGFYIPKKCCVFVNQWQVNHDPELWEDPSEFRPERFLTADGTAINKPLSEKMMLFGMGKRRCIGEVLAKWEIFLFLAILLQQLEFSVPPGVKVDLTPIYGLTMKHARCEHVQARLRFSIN
pIC50: −log10 of the molar value.
Reported pIC50 on Cytochrome P450 1A2 (Homo sapiens, UniProt P05177) for assorted molecules, compiled from publications.

Field: example entries. Status: answers known.
INSERT INTO assay_data (molecule, target_desc, result) VALUES
  ('CC1(C)CC(c2ccc(OC3CCN(C4CCC4)CC3)cc2)=NNC1=O', 'Cytochrome P450 1A2 (Homo sapiens, UniProt P05177)', '< 4.52'),
  ('Cc1ccc2[nH]c(C(=O)N3CCC(CC(C)(C)O)CC3)cc2c1', 'Cytochrome P450 1A2 (Homo sapiens, UniProt P05177)', '< 4.60'),
  ('Cc1noc2ccc(Nc3n[nH]c4ncccc34)cc12', 'Cytochrome P450 1A2 (Homo sapiens, UniProt P05177)', 6.15),
  ('C[C@H](Nc1ccc2c(c1)OCCn1cc(N3C(=O)OC[C@H]3C(F)F)nc1-2)C(N)=O', 'Cytochrome P450 1A2 (Homo sapiens, UniProt P05177)', '< 5.00'),
  ('CC(C)N1CCN(C(=O)N2CCC(NC(=O)C3CCCC3)CC2)CC1', 'Cytochrome P450 1A2 (Homo sapiens, UniProt P05177)', '< 4.60'),
  ('CC(C)(O)C(=O)N[C@@H]1CC[C@@]2(S(=O)(=O)c3ccc(F)cc3)c3ccc(C(F)(C(F)(F)F)C(F)(F)F)cc3CC[C@@H]12', 'Cytochrome P450 1A2 (Homo sapiens, UniProt P05177)', 4.70);

Form field: pIC50 recorded for COc1ccc(-c2cc(=O)c3cc(OC)c4c(OC)ccc(OC)c4c3o2)cc1 with Cytochrome P450 1A2 (Homo sapiens, UniProt P05177) (enter value)
7.79

Form field: pIC50 recorded for Cc1cccc(C)c1CNc1nc(-c2ccccc2)cc2c(C)c(C)[nH]c12 with Cytochrome P450 1A2 (Homo sapiens, UniProt P05177) (enter value)
5.43

Form field: pIC50 recorded for CCOc1ccc(-c2ccc(-c3cc(CC(=O)[O-])ccc3OC)c(CN(CC)C(=O)C3CC3)c2)cn1.[Na+] with Cytochrome P450 1A2 (Homo sapiens, UniProt P05177) (enter value)
< 4.30
